biological target: Phosphodiesterase; PDE3 & PDE4 (Homo sapiens) (UniProt P27815+Q14432+Q08499+Q07343+Q13370+Q08493); assay: Inhibition of cAMP Phosphodiesterase enzyme.; type: protein assay
The label depends only on PDE inhibition: 1 if it is at least 80, 0 if it is smaller.

COMPOUND: C[C@@H]1C(=O)NC2=Nc3cccc(Cl)c3CN21
ANSWER_LABEL: 1

COMPOUND: CN(C(=O)CCCOc1ccc2c(c1)CN1CC(=O)NC1=N2)C1CCCCC1
ANSWER_LABEL: 1

COMPOUND: O=C1CCC(c2ccc3c(c2)NC(=O)CC3)=NN1
ANSWER_LABEL: 1

COMPOUND: O=C1CCC(c2ccc(-n3ccnc3)cc2)=NN1
ANSWER_LABEL: 0

COMPOUND: CC1CC(O)=NN=C1c1ccc(-n2ccnc2)cc1 (configuration not stated)
ANSWER_LABEL: 0

COMPOUND: Cc1[nH]c(=O)c(C#N)cc1-c1ccncc1
ANSWER_LABEL: 0

COMPOUND: CCCCNC(=O)NC1CCN(c2ncnc3cc(OC)c(OC)cc23)CC1
ANSWER_LABEL: 1

COMPOUND: CCc1nc(O)ncc1-c1ccc(O)cc1
ANSWER_LABEL: 0

COMPOUND: CCc1[nH]c(=O)[nH]c1C(=O)c1ccncc1
ANSWER_LABEL: 0

COMPOUND: Cc1nc(O)c(N)cc1-c1ccccc1
ANSWER_LABEL: 0

COMPOUND: CC(=O)Nc1ccc(-c2cnc(O)cn2)cc1
ANSWER_LABEL: 0

COMPOUND: CCNC(=O)OC1CCN(c2nncc3cc(OC)c(OC)cc23)CC1
ANSWER_LABEL: 1
